Entries annotated with measured growth
Tested on: IGROV1 ovarian
experiment.summary: NCI-60 one-dose screen, 48 h (100 = growth as untreated, 0 = no growth, -100 = all killed)
measurement.setup: 10 µM
This is part of a sample that, as a whole, favours compounds with a hit. Of some 83,000 tested, about 20% had one in any assay.
Lab book: enter the figure in %, no units written.

Example results:
molecule	measurement.unit	growth
CC1Cc2ccccc2O1 (stereo unspecified)	%	111
CC1C(=O)c2ccccc2CC1C(=O)O (stereo unspecified)	%	100
CC(=O)CC(=O)N(C)C	%	109
Cc1cc(N)ccc1-c1ccc(N)cc1C	%	104
COc1cc(C(N)=O)cc(OC)c1OC	%	108

input: State growth (IGROV1 ovarian) of `CCN=c1cc2sc3cc(NCC)c(C)cc3nc-2cc1C` .
output: 15.2
